Values were extracted from ChEMBL document CHEMBL1201862.

Let's look at some molecules and their measured GI50.
# System: NCI-H226
# Measurement notes: NCI tumour cell line growth inhibition, 48 h
Calls of active or inactive are those of the source. Cut-off read from the data, not from the text of the source: active = GI50 up to about 1.1 µM and inactive = higher.
Quantity: GI50

# Molecule, Tested target, Quantity, Recorded result
measured = [
    ("C=C1C(=O)O[C@H]2/C=C(/C)C3=CC(=O)[C@@](C)(C[C@@H](OC(=O)/C(C)=C\\C)C12)O3 (stereo not given in full)", "NCI-H226", "GI50", "2.59 µM (inactive)"),
    ("CCOC(=O)NC1=C(N2CC2)C(=O)C(NC(=O)OCC)=C(N2CC2)C1=O", "NCI-H226", "GI50", "4.23 µM (inactive)"),
    ("CCn1c(-c2ccc(F)cc2)nc2c1C(=O)c1ccccc1C2=O", "NCI-H226", "GI50", "91 µM (inactive)"),
    ("Cc1ccc(C)c(NC(=O)NCc2ccc(Cl)cc2)c1", "NCI-H226", "GI50", "38.2 µM (inactive)"),
    ("CC(CO)C1C[C@H](O)[C@@]2(C)CC(=O)C=C(CO)[C@@H]2C1 (stereo not given in full)", "NCI-H226", "GI50", "> 100 µM (inactive)"),
    ("CC(C)(C)C1CCC(=O)C(C(O)CC2CC(=O)N(c3ccccc3)C(=O)C2)C1 (stereo not given)", "NCI-H226", "GI50", "> 100 µM (inactive)"),
    ("O=C1NC(=O)/C(=C/c2ccc(S(=O)(=O)N/N=C/c3ccc(Cl)cc3)cc2)N1", "NCI-H226", "GI50", "> 100 µM (inactive)"),
    ("C1CCNCC1.O=C1NC(=S)N/C1=C/c1ccccc1O", "NCI-H226", "GI50", "> 100 µM (inactive)"),
    ("c1nc(NCCc2c[nH]cn2)c2nc[nH]c2n1", "NCI-H226", "GI50", "91.6 µM (inactive)"),
    ("COc1cc(COC(=O)N(CC(=O)O)c2ccccc2)c([N+](=O)[O-])cc1OC", "NCI-H226", "GI50", "> 100 µM (inactive)"),
]
